Tested on: Peptidoglycan synthesis of S. aureus RN450
assay_info: microbe, parasite or virus in culture
Type: cell-based
run_conditions: Staphylococcus aureus, read-out: Peptidoglycan synthesis IC50
quantity_measured: IC50

// recorded IC50 for CN(C)c1ccc(O)c2c1C[C@H]1C[C@H]3[C@H](N(C)C)C(O)=C(C(N)=O)C(=O)[C@@]3(O)C(O)=C1C2=O [Minocycline, reference compound] : 4.6 µg/mL

// recorded IC50 for CN(C)[C@@H]1C(O)=C(C(N)=O)C(=O)[C@@]2(O)C(O)=C3C(=O)c4c(O)ccc(-c5ccc(NC(=O)c6ccno6)cc5)c4C[C@H]3C[C@@H]12 [AE] : 6 µg/mL

// recorded IC50 for CN(C)c1cc(NC(=O)CNC(C)(C)C)c(O)c2c1C[C@H]1C[C@H]3[C@H](N(C)C)C(O)=C(C(N)=O)C(=O)[C@@]3(O)C(O)=C1C2=O [Tigecycline, reference compound] : > 32 µg/mL

// recorded IC50 for CO/N=C/c1cc(-c2ccc(O)c3c2C[C@H]2C[C@H]4[C@H](N(C)C)C(O)=C(C(N)=O)C(=O)[C@@]4(O)C(O)=C2C3=O)ccc1OC [A] : 2.1 µg/mL

More entries:
// recorded IC50 for Cc1c2c(c(O)c3c(O)cccc13)C(=O)[C@]1(O)C(=O)C(C(N)=O)=C(O)[C@@H](N(C)C)[C@@H]1C2 [Anhydro-tetracycline, anhydrotetracycline, reference compound] : 19.2 µg/mL
